Molecular target: HLA-DRB1*09:01 MHCII molecule (human)
Experiment: competition ELISA; 25 nM huCLIP-bio
Conditions: modification not given
measure: IC50
Answers without a unit are incomplete; give the number and then its unit.

Q. Report IC50 for PVSQMRMATPLLMRP [mCLIP] please.
A. 25 nM
